system: SW 982 tumor spheroid viability; assay: Anticancer human tumor SW 982 cell line growth inhibition; details: second compound 0.000949 µM; first compound 0.0316 µM; stronger effect = lower value; spheroids with HUVEC and MSC;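 note: spheroids exposed to compound for 7 days before readout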
Please provide measured viability, T/C for the entries that follow.
Number only, in %; omit the unit.

What does the record list as viability, T/C for COc1cc(C)[nH]c(=O)c1CN1CCc2c(Cl)cc(C(OC)C3COC3)c(Cl)c2C1=O (stereo unspecified) + COc1cc2c(cc1O)CCNC21CSC2c3c(OC(C)=O)c(C)c4c(c3C(COC1=O)N1C(O)C3Cc5cc(C)c(OC)c(O)c5C(C21)N3C)OCO4 ?
38.3

Dear colleague, I am looking for the recorded viability, T/C of the following compound: Cc1cc(C)c(CNC(=O)c2cc(-c3ccc(CN4CCOCC4)cc3)cc3c2cnn3C2CCCC2)c(=O)[nH]1 + COc1cc2c(cc1O)CCNC21CSC2c3c(OC(C)=O)c(C)c4c(c3C(COC1=O)N1C(O)C3Cc5cc(C)c(OC)c(O)c5C(C21)N3C)OCO4
35.7

Suppose we examine the compound CC(C)n1c(=O)n(C)c2cnc3cc(F)c(-c4ccc(OCCCN5CCCCC5)nc4)cc3c21 + COc1cc2c(cc1O)CCNC21CSC2c3c(OC(C)=O)c(C)c4c(c3C(COC1=O)N1C(O)C3Cc5cc(C)c(OC)c(O)c5C(C21)N3C)OCO4 ; what viability, T/C value has been reported?
32.3

viability, T/C for [2H]c1nc(C)nc([2H])c1-c1cc(NC[C@@H](C)c2cccc3c(C(=O)NC)ccnc23)ncn1 + COc1cc2c(cc1O)CCNC21CSC2c3c(OC(C)=O)c(C)c4c(c3C(COC1=O)N1C(O)C3Cc5cc(C)c(OC)c(O)c5C(C21)N3C)OCO4 ?
37.3

Find the recorded viability, T/C belonging to CC1COCCN1c1cc(-c2ccnn2C)c2ccnc(-c3ccn[nH]3)c2n1 (stereo unspecified) + COc1cc2c(cc1O)CCNC21CSC2c3c(OC(C)=O)c(C)c4c(c3C(COC1=O)N1C(O)C3Cc5cc(C)c(OC)c(O)c5C(C21)N3C)OCO4 and report it.
13.8

Item under review: COc1ccc([C@@H](O)c2cc(-c3ncnc4cc(N5CCOCC5)ccc34)c(F)cc2Cl)nn1 + COc1cc2c(cc1O)CCNC21CSC2c3c(OC(C)=O)c(C)c4c(c3C(COC1=O)N1C(O)C3Cc5cc(C)c(OC)c(O)c5C(C21)N3C)OCO4 . Reported viability, T/C?
36.2
